src = ChEMBL document CHEMBL6109159

Target: von Hippel-Lindau disease tumor suppressor/Protein arginine N-methyltransferase 5 (Homo sapiens, UniProt O14744+P40337)
Sequence (O14744 whole entry, looked up): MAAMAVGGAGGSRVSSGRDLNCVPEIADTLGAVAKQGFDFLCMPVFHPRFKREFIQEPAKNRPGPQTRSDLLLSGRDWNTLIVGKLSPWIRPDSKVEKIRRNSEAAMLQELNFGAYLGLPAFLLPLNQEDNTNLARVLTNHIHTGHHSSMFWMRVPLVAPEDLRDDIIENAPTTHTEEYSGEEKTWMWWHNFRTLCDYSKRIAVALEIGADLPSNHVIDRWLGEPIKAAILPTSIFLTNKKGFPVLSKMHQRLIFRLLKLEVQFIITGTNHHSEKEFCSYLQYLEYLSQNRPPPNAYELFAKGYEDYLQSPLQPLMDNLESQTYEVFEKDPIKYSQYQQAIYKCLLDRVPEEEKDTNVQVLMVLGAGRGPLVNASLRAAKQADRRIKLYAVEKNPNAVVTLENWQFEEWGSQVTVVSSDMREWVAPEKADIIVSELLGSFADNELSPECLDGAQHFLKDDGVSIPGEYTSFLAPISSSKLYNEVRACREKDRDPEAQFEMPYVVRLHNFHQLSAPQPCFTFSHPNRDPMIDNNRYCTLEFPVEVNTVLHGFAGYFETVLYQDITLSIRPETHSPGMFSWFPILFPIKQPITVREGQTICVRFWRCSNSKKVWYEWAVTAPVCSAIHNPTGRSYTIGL
Sequence (P40337 whole entry, looked up): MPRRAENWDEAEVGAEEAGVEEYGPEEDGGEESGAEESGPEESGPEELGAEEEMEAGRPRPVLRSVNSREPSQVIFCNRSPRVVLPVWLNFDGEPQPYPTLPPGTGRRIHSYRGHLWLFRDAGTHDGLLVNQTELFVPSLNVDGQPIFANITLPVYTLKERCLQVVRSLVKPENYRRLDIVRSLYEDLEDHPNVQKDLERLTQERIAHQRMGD
Test: PROTAC activity at […]/VHL in human MDA-MB-468 cells assessed as relative protein level at 0.5 uM measured after 24 hrs by Western blot analysis
Format: cell-based
Activity calls are given as the source filed them. The rule behind the calls is not given here.
Hi! Could you answer with just one of these? yes (1) = active, no (0) = inactive

Observe how each entry below is paired with its result.
Cc1ncsc1-c1ccc([C@H](C)NC(=O)[C@@H]2C[C@@H](O)CN2C(=O)[C@@H](NC(=O)CCOCCOCCOCCOCCC(=O)N2CCC(Nc3cc(C(=O)NC[C@H](O)CN4CCc5ccccc5C4)ncn3)CC2)C(C)(C)C)cc1 ... yes (1)
Cc1ncsc1-c1ccc([C@H](CC(=O)NCCCCCCC(=O)N2CCC(Nc3cc(C(=O)NC[C@H](O)CN4CCc5ccccc5C4)ncn3)CC2)NC(=O)[C@@H]2C[C@@H](O)CN2C(=O)[C@@H](NC(=O)C2(F)CC2)C(C)(C)C)cc1 ... yes (1)
Cc1ncsc1-c1ccc(CNC(=O)[C@@H]2C[C@@H](O)CN2C(=O)[C@@H](NC(=O)C2(F)CC2)C(C)(C)C)c(OCC(=O)NCCOCCOCCC(=O)N2CCC(Nc3cc(C(=O)NC[C@H](O)CN4CCc5ccccc5C4)ncn3)CC2)c1 ... no (0)
Cc1ncsc1-c1ccc([C@H](CC(=O)NCCCC(=O)N2CCC(Nc3cc(C(=O)NC[C@H](O)CN4CCc5ccccc5C4)ncn3)CC2)NC(=O)[C@@H]2C[C@@H](O)CN2C(=O)[C@@H](NC(=O)C2(F)CC2)C(C)(C)C)cc1 ... yes (1)
Cc1ncsc1-c1ccc(CNC(=O)[C@@H]2C[C@@H](O)CN2C(=O)[C@@H](NC(=O)C2(F)CC2)C(C)(C)C)c(OCC(=O)NCCCC(=O)N2CCC(Nc3cc(C(=O)NC[C@H](O)CN4CCc5ccccc5C4)ncn3)CC2)c1 ... yes (1)

Query block: Just curious, what result did Cc1ncsc1-c1ccc(CNC(=O)[C@@H]2C[C@@H](O)CN2C(=O)[C@@H](NC(=O)C2(F)CC2)C(C)(C)C)c(OCC(=O)NCC(=O)N2CCC(Nc3cc(C(=O)NC[C@H](O)CN4CCc5ccccc5C4)ncn3)CC2)c1 get here?
Result block: yes (1)

Query block: Just curious, what result did Cc1ncsc1-c1ccc(CNC(=O)[C@@H]2C[C@@H](O)CN2C(=O)[C@@H](NC(=O)C2(F)CC2)C(C)(C)C)c(OCC(=O)NCCCCC(=O)N2CCC(Nc3cc(C(=O)NC[C@H](O)CN4CCc5ccccc5C4)ncn3)CC2)c1 get here?
Result block: yes (1)

Query block: Just curious, what result did Cc1ncsc1-c1ccc([C@H](CC(=O)NCCOCCOCCOCCOCCOCCC(=O)N2CCC(Nc3cc(C(=O)NC[C@H](O)CN4CCc5ccccc5C4)ncn3)CC2)NC(=O)[C@@H]2C[C@@H](O)CN2C(=O)[C@@H](NC(=O)C2(F)CC2)C(C)(C)C)cc1 get here?
Result block: yes (1)
